# Measured target: human GPR52 (Homo sapiens)
# Construct: expressed in transfected cells; host or cells: CHO(dhfr-) cells
# Experiment summary: Increase of intracellular cAMP concentration in human GPR52-expressing CHO cell (AlphaScreen cAMP assay)
# Type: cell-based
# Test settings: 1 μM test compound, human GPR52-expressing CHO(dhfr-) cells, 37° C. for 30 min; intracellular cAMP with 1 μM Reference Example 124 = 100%, DMSO = 0%
Measure: GPR52 agonist activity (%)

compound="O=C(NCCO)c1cccc(-c2ccc3c(c2)N(c2cccc(Cl)c2Cl)CC3)c1 [Example 11]" result_number=74
compound="COc1ccc(CCn2ccc3ccc(-c4cccc(C(=O)NCCC#N)c4)nc32)cc1OC [Example 26]" result_number=62
compound="O=C(NCCO)c1cccc(-c2ccc3c(n2)N(Cc2ccc(Cl)cc2Cl)CC3)c1 [Example 29]" result_number=76

----------
# Measured target: human GPR52 (Homo sapiens, UniProt Q9Y2T5)
# Construct: expressed in transfected cells; host or cells: CHO(dhfr-) cells
# Sequence (Q9Y2T5 whole entry): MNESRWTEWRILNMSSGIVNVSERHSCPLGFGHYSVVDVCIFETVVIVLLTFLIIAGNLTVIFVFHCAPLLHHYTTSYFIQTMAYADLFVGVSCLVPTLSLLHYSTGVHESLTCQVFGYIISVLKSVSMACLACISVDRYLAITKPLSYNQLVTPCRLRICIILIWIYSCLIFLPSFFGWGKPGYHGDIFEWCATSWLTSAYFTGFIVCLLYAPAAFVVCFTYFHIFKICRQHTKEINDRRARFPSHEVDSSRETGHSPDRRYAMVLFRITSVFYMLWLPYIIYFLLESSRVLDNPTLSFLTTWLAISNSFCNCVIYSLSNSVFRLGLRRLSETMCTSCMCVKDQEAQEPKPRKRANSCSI
# Experiment summary: Increase of intracellular cAMP concentration in human GPR52-expressing CHO cell (AlphaScreen cAMP assay)
# Assay type: cell-based
# Test settings: 1 μM test compound, human GPR52-expressing CHO(dhfr-) cells, 37° C. for 30 min; intracellular cAMP with 1 μM Reference Example 124 = 100%, DMSO = 0%
# Experimental: Increase of Intracellular cAMP Concentration in Human GPR52-Expressing CHO Cell Using OptiPlate-384 (PerkinElmer Inc.), 1×10^4 human GPR52-expressing CHO(dhfr-) cells were incubated together with 1 μM of a test compound in an assay buffer (30 μL, HBSS (containing Ca^2+ and Mg^2+), 0.5% BSA, 100 μm IBMX, 100 μm Ro20-1724, 5 mM HEPES (pH 7.55)) at 37° C. for 30 min. […]
hey, just use MET if measured GPR52 agonist activity (%) is less than 70%, otherwise NOT MET

compound=O=C(NCCCO)c1cccc(-c2ccc3c(n2)N(Cc2ccc(Cl)cc2Cl)CC3)c1 group_label=MET
compound=O=C(NCCO)c1cccc(-c2ccc3c(n2)N(c2ccc(Cl)cc2Cl)CC3)c1 group_label="NOT MET"
compound=N#CCCNC(=O)c1cccc(-c2ccc3c(c2)N(c2ccc(Cl)c(Cl)c2)CC3)c1 group_label=MET
compound="N#CCCNC(=O)c1cccc(-c2ccc3c(c2)C(c2ccc(Cl)cc2Cl)CC3)c1 (single isomer, unassigned; (-)) [Example 62]" group_label="NOT MET"
compound=N#CCCNC(=O)c1cccc(-c2ccc3c(c2)N(c2cccc(Cl)c2Cl)CC3)c1 group_label=MET
compound="CS(=O)(=O)CCNC(=O)c1cccc(-c2ccc3c(c2)C(Oc2ccc(Cl)cc2Cl)CC3)c1 (centres unmarked)" group_label="NOT MET"
compound=N#CCCNC(=O)c1cccc(-c2ncc3ccn(Cc4ccc(Cl)cc4Cl)c3n2)c1 group_label=MET

----------
# Measured target: human GPR52 (Homo sapiens, UniProt Q9Y2T5)
# Construct: expressed in transfected cells; host or cells: CHO(dhfr-) cells
# Experiment summary: Increase of intracellular cAMP concentration in human GPR52-expressing CHO cell (AlphaScreen cAMP assay)
# Type: cell-based
# Test settings: 1 μM test compound, human GPR52-expressing CHO(dhfr-) cells, 37° C. for 30 min; intracellular cAMP with 1 μM Reference Example 124 = 100%, DMSO = 0%
Measure: GPR52 agonist activity (%)

compound=O=C(NCCO)c1cccc(-c2ccc3ccn(-c4ccc(Cl)cc4Cl)c3n2)c1 measured_target="human GPR52 (Homo sapiens, UniProt Q9Y2T5)" measure="GPR52 agonist activity (%)" result_number=61
compound=N#CCCNC(=O)c1cccc(-c2ccc3c(c2)N(Cc2ccc(Cl)cc2Cl)CC3)c1 measured_target="human GPR52 (Homo sapiens, UniProt Q9Y2T5)" measure="GPR52 agonist activity (%)" result_number=60
compound=COc1ccc(CCn2cnc3ccc(-c4cccc(C(=O)NCCN5CCCC5)c4)nc32)cc1OC measured_target="human GPR52 (Homo sapiens, UniProt Q9Y2T5)" measure="GPR52 agonist activity (%)" result_number=79
compound=CN(C)CCNC(=O)c1cccc(-c2ccc3c(c2)N(c2ccc(Cl)cc2Cl)CC3)c1 measured_target="human GPR52 (Homo sapiens, UniProt Q9Y2T5)" measure="GPR52 agonist activity (%)" result_number=87
compound="O=C(NCCO)c1cccc(-c2ccc3c(c2)C(c2ccc(Cl)cc2Cl)CC3)c1 (centres unmarked)" measured_target="human GPR52 (Homo sapiens, UniProt Q9Y2T5)" measure="GPR52 agonist activity (%)" result_number=84
compound=CN(C)CCNC(=O)c1cccc(-c2ccc3c(c2)N(Cc2ccc(Cl)cc2Cl)CC3)c1 measured_target="human GPR52 (Homo sapiens, UniProt Q9Y2T5)" measure="GPR52 agonist activity (%)" result_number=89
compound="O=C(NCCO)c1cccc(-c2ccc3c(c2)C(c2ccc(Cl)cc2Cl)CCO3)c1 (centres unmarked)" measured_target="human GPR52 (Homo sapiens, UniProt Q9Y2T5)" measure="GPR52 agonist activity (%)" result_number=65
compound="O=C(NCCO)c1cccc(-c2ccc3c(c2)C(Oc2ccc(Cl)cc2Cl)CC3)c1 (centres unmarked)" measured_target="human GPR52 (Homo sapiens, UniProt Q9Y2T5)" measure="GPR52 agonist activity (%)" result_number=76

----------
# Measured target: human GPR52 (Homo sapiens, UniProt Q9Y2T5)
# Construct: expressed in transfected cells; host or cells: CHO(dhfr-) cells
# Experiment summary: Increase of intracellular cAMP concentration in human GPR52-expressing CHO cell (AlphaScreen cAMP assay)
# Format: cell-based
# Test settings: 1 μM test compound, human GPR52-expressing CHO(dhfr-) cells, 37° C. for 30 min; intracellular cAMP with 1 μM Reference Example 124 = 100%, DMSO = 0%
hey, just use 1 if measured GPR52 agonist activity (%) is less than 80%, otherwise 0

compound="C[S+]([O-])CCNC(=O)c1cccc(-c2ccc3c(c2)C(c2ccc(Cl)cc2Cl)CC3)c1 (centres unmarked)" group_label=0
compound="O=C(NC1CC1)c1cccc(-c2ccc3c(c2)C(Oc2ccc(Cl)cc2Cl)CC3)c1 (centres unmarked)" group_label=1
compound="NC(=O)CNC(=O)c1cccc(-c2ccc3c(c2)C(Oc2ccc(Cl)cc2Cl)CC3)c1 (centres unmarked)" group_label=1
compound=O=C(NCCO)c1cccc(-c2ccc3c(c2)N(c2cc(Cl)ccc2Cl)CC3)c1 group_label=1
compound=O=C(NCCO)c1cccc(-c2ccc3c(c2)N(Cc2cc(Cl)cc(Cl)c2)CC3)c1 group_label=0
compound=O=C(NCCO)c1cccc(-c2ccc3c(c2)N(c2ccc(Cl)c(Cl)c2)CC3)c1 group_label=1
compound=O=C(NCCO)c1cccc(-c2ccc3ccn(Cc4ccc(Cl)cc4Cl)c3n2)c1 group_label=1
compound=N#CCCNC(=O)c1cccc(-c2ccc3c(c2)N(Cc2cc(Cl)cc(Cl)c2)CC3)c1 group_label=1

----------
# Measured target: human GPR52 (Homo sapiens, UniProt Q9Y2T5)
# Construct: expressed in transfected cells; host or cells: CHO(dhfr-) cells
# Experiment summary: Increase of intracellular cAMP concentration in human GPR52-expressing CHO cell (AlphaScreen cAMP assay)
# Type: cell-based
# Test settings: 1 μM test compound, human GPR52-expressing CHO(dhfr-) cells, 37° C. for 30 min; intracellular cAMP with 1 μM Reference Example 124 = 100%, DMSO = 0%
Each entry below carries its reported GPR52 agonist activity (%).
Measure: GPR52 agonist activity (%)

molecule=O=C(NCCO)c1cccc(-c2ccc3c(c2)N(c2ccc(Cl)cc2Cl)CC3)c1 result_number=71
molecule="O=C(NC(CO)CO)c1cccc(-c2ccc3c(c2)C(c2ccc(Cl)cc2Cl)CC3)c1 (centres unmarked)" result_number=91
molecule=N#CCCNC(=O)c1cccc(-c2ccc3c(n2)N(c2ccc(Cl)cc2Cl)CC3)c1 result_number=74
molecule=N#CCCNC(=O)c1cccc(-c2ccc3c(c2)N(c2ccc(Cl)cc2Cl)CCO3)c1 result_number=63
molecule="C[S+]([O-])CCNC(=O)c1cccc(-c2ccc3c(c2)C(Oc2ccc(Cl)cc2Cl)CC3)c1 (centres unmarked)" result_number=80
molecule=N#CCCNC(=O)c1cccc(-c2ccc3c(c2)N(c2ccc(Cl)cc2Cl)CC3)c1 result_number=69
molecule=COc1ccc(CCn2ccc3ccc(-c4cccc(C(=O)NCCN(C)C)c4)nc32)cc1OC result_number=80
molecule="CN(C)CCNC(=O)c1cccc(-c2ccc3c(c2)C(c2cc(Cl)ccc2Cl)CC3)c1 (centres unmarked)" result_number=89

----------
# Measured target: human GPR52 (Homo sapiens)
# Construct: expressed in transfected cells; host or cells: CHO(dhfr-) cells
# Experiment summary: Increase of intracellular cAMP concentration in human GPR52-expressing CHO cell (AlphaScreen cAMP assay)
# Type: cell-based
# Test settings: 1 μM test compound, human GPR52-expressing CHO(dhfr-) cells, 37° C. for 30 min; intracellular cAMP with 1 μM Reference Example 124 = 100%, DMSO = 0%
Measure: GPR52 agonist activity (%)

compound="N#CCCNC(=O)c1cccc(-c2ccc3c(c2)C(Oc2ccc(Cl)cc2Cl)CC3)c1 (centres unmarked)" result=73%
compound="N#CCCNC(=O)c1cccc(-c2ccc3c(c2)C(c2ccc(Cl)cc2Cl)CC3)c1 (single isomer, unassigned; (+)) [Example 63]" result=66%
compound="O=C(NCCO)c1cccc(-c2ccc3c(c2)C(Nc2ccc(Cl)cc2Cl)CO3)c1 (centres unmarked)" result=59%
compound=N#CCCNC(=O)c1cccc(-c2ccc3c(n2)N(Cc2ccc(Cl)cc2Cl)CC3)c1 result=72%
compound=O=C(NCCO)c1cccc(-c2ccc3c(c2)N(c2cc(Cl)cc(Cl)c2)CC3)c1 result=59%
compound=N#CCCNC(=O)c1cccc(-c2ccc3c(c2)N(c2cc(Cl)ccc2Cl)CC3)c1 result=75%
compound="CS(=O)(=O)CCNC(=O)c1cccc(-c2ccc3c(c2)C(c2ccc(Cl)cc2Cl)CC3)c1 (centres unmarked)" result=73%
compound="O=C(Nc1nccs1)c1cccc(-c2ccc3c(c2)C(Oc2ccc(Cl)cc2Cl)CC3)c1 (centres unmarked)" result=67%
